- protocol.text: gradient 5% acetonitrile 3 min, to 50% in 2 min, to 85% in 15 min, held 3 min, 100 µL/min
- assay.setup: column: Zorbax Extend-C18 2.1 x 50 mm; eluents: water / acetonitrile, 0.1% formic acid
measured.attribute: RP-LC retention time (s)

CCc1cccc(C)c1Nc1c(-c2ccc(N3CCOCC3)cc2)nc2ncccn12; 806

a = O=S(=O)(c1ccc(Cl)cc1)c1ccc(N2CCN(c3ncccn3)CC2)nn1
b = CCNc1cc(N2CCC(CCC(=O)NCC(C)C)CC2)ncn1
c = Cc1ccc(NC(=O)Cc2c(C)nn(-c3nc(-c4ccc(Cl)cc4)cs3)c2C)c(C)c1
Ask: # sort list by recorded RP-LC retention time, greatest to least Show the ranking through the labels, in the order asked for.
Reply: c, a, b

a = O=C(c1cnn2c(-c3ccc4c(c3)OCO4)ccnc12)N1CCN(Cc2ccc3c(c2)OCO3)CC1
b = Cc1ccc(CNC(=O)C2CCCN(c3nc4ccsc4c(=O)n3-c3ccc(C)cc3)C2)cc1 (centres undefined)
Ask: From the items above, decide which of a and b has the lower RP-LC retention time reading. Which one? Tell me its label.
Reply: a

----------
- protocol.text: gradient 5% acetonitrile 3 min, to 50% in 2 min, to 85% in 15 min, held 3 min, 100 µL/min
- assay.setup: column: Zorbax Extend-C18 2.1 x 50 mm; eluents: water / acetonitrile, 0.1% formic acid
measured.attribute: RP-LC retention time (s)

Here's what some known entries look like.
COc1cccc(CNC(=O)C2CCCN2S(=O)(=O)c2cc3c(cc2C)NC(=O)CO3)c1 (stereo not given); 721
Cn1cccc1C(=O)C(=O)Nc1cccc(Br)c1; 1040
CCOC(=O)CC(NC(=O)NCc1ccnc(N2CCCCC2)c1)c1ccccc1 (stereo not given); 645
Cc1ccc(-c2nc3ncccn3c2Nc2cccc(Cl)c2C)cc1; 915

1 = Cc1ccc(/C=C/S(=O)(=O)N2CC(c3nc(-c4cccs4)no3)C2)cc1
2 = Cc1ccc(NC(=O)C2CCN(C(=O)c3ncn4c3COC(c3ccccc3)C4)CC2)cc1 (stereo not given)
Ask: From the items above, decide which of 1 and 2 has the lower RP-LC retention time reading. Which one? Tell me its label.
Reply: 2
(2: 626 s, 1: 996 s)

I = COC(=O)C1=CN(c2cc(F)ccc2C)c2ccc(F)cc2S1(=O)=O
II = COc1ccc(NC(=O)NCCn2c(-c3ccncc3)nc3cccnc32)cc1
Ask: From the items above, decide which of I and II has the lower RP-LC retention time reading. Which one? Tell me its label.
Reply: II
(II: 608 s, I: 898 s)

----------
- protocol.text: gradient 5% acetonitrile 3 min, to 50% in 2 min, to 85% in 15 min, held 3 min, 100 µL/min
- assay.setup: column: Zorbax Extend-C18 2.1 x 50 mm; eluents: water / acetonitrile, 0.1% formic acid
measured.attribute: RP-LC retention time (s)

CC(C)n1cc(C(=O)O)c(S(=O)(=O)N2CCCC2)n1; 712
O=C(Cn1cccc1-c1nnc(C2CCC2)o1)NCc1ccc(Cl)cc1; 907
O=C(CCn1nnc2cc(-c3noc(-c4ccccc4Br)n3)ccc21)N1CCOCC1; 896

----------
- protocol.text: gradient 5% acetonitrile 3 min, to 50% in 2 min, to 85% in 15 min, held 3 min, 100 µL/min
- assay.setup: column: Zorbax Extend-C18 2.1 x 50 mm; eluents: water / acetonitrile, 0.1% formic acid
measured.attribute: RP-LC retention time (s)

CCNc1cc(C)nc(N2CCN(C(=O)c3cccc(Br)c3)CC2)n1; 775
CCOC(=O)Nc1ccc(C(=O)/C=C/c2ccccc2)cc1; 1000
COc1ccc(-n2ccn3cc(-c4ccc(F)cc4F)nc3c2=O)cc1Cl; 929
CCCN1C(=O)c2cc(C(=O)N3CCN(C4CCCCC4)CC3)nn2CC1(C)C(=O)NC1CCCC1 (stereo not drawn); 660
Cc1ccnc(N2CCCC(C(=O)NC3CCCC3)C2)n1 (stereo not drawn); 674
COc1ccc(Nc2c(C(=O)N3CCCC(C)C3)cnc3nc(C)ccc23)cc1 (stereo not drawn); 650
O=C(O)CCCC(=O)Nc1nc(-c2cccc3ccccc23)cs1; 818
CC(C)(Oc1ccc(Cl)cc1)C(=O)Nc1ccc2cn[nH]c2c1; 822

----------
- protocol.text: gradient 5% acetonitrile 3 min, to 50% in 2 min, to 85% in 15 min, held 3 min, 100 µL/min
- assay.setup: column: Zorbax Extend-C18 2.1 x 50 mm; eluents: water / acetonitrile, 0.1% formic acid
measured.attribute: RP-LC retention time (s)

Here's what some known entries look like.
COc1ccccc1N1CCN(c2ncc(C(=O)O)c(C(C)C)n2)CC1; 911
O=C(CCc1nc(N2CCCCC2)c2c(-c3ccccc3)noc2n1)NC1CC1; 909
CCCN1C(=O)c2cc(S(=O)(=O)Nc3cccc(F)c3)ccc2Oc2cccnc21; 1060
Cc1ccc(C)c(NC(=O)Cn2cnc3c(sc4nc(-c5ccccc5)ccc43)c2=O)c1; 1050

a = O=C(O)c1cccn2c(=O)c3cc(Cl)ccc3nc12
b = Cc1ccccc1-n1c(=O)c2sccc2n(Cc2nc(-c3ccc(Cl)c(F)c3)no2)c1=O
Ask: From the items above, decide which of a and b has the lower RP-LC retention time reading. Which one? Tell me its label.
Reply: a
(a: 782 s, b: 1120 s)

----------
- protocol.text: gradient 5% acetonitrile 3 min, to 50% in 2 min, to 85% in 15 min, held 3 min, 100 µL/min
- assay.setup: column: Zorbax Extend-C18 2.1 x 50 mm; eluents: water / acetonitrile, 0.1% formic acid
measured.attribute: RP-LC retention time (s)

P = COc1ccccc1NC(=O)c1cc2ccccc2cc1O
Q = COc1ccc(-c2cn3c(CC(=O)NCc4ccc(N(C)C)cc4)csc3n2)cc1OC
Ask: From the items above, decide which of P and Q has the lower RP-LC retention time reading. Which one? Tell me its label.
Reply: Q

----------
- protocol.text: gradient 5% acetonitrile 3 min, to 50% in 2 min, to 85% in 15 min, held 3 min, 100 µL/min
- assay.setup: column: Zorbax Extend-C18 2.1 x 50 mm; eluents: water / acetonitrile, 0.1% formic acid
measured.attribute: RP-LC retention time (s)

CCn1ccc2sc(C)c(C(=O)NCc3ccccc3OC)c2c1=O; 796
COc1ccc(OC)c(CNC(=O)NC2COc3ccc(OC)cc3C2)c1 (centres undefined); 810
O=C(CCC(=O)N1CC2CCCN2c2ccccc21)NCCc1cccs1 (centres undefined); 906
COc1cccc(C(=O)NCc2ccc3[nH]c4c(c3c2)CCCC4)c1OC; 910
COc1cccc(CNS(=O)(=O)c2ccccc2-c2nc(-c3cccc(F)c3)no2)c1; 1150
O=C1CC(c2nc(-c3ccccc3Cl)no2)CN1c1ccc2c(c1)OCO2 (centres undefined); 933
Cc1nnsc1C(=O)N1CCC(CNC(=O)c2cc(-c3ccccc3)on2)CC1; 761
COc1ccc(Cl)cc1NC(=O)N1CCC(c2cc(N)on2)CC1; 760
Cc1nc(-c2ccccc2)oc1CC(=O)N1CCCCCC1; 868

----------
- protocol.text: gradient 5% acetonitrile 3 min, to 50% in 2 min, to 85% in 15 min, held 3 min, 100 µL/min
- assay.setup: column: Zorbax Extend-C18 2.1 x 50 mm; eluents: water / acetonitrile, 0.1% formic acid
measured.attribute: RP-LC retention time (s)

COCCNc1c(C(=O)OC)c(=O)[nH]c2c(Cl)cccc12; 645

1 = COc1ccc(-c2noc(Cc3nnc(-c4ccc(C)c(F)c4)o3)n2)cc1
2 = CCCN1CCn2cc(S(=O)(=O)Nc3ccccc3OC)cc2C1=O
Ask: From the items above, decide which of 1 and 2 has the lower RP-LC retention time reading. Which one? Tell me its label.
Reply: 2
(2: 733 s, 1: 1050 s)

----------
- protocol.text: gradient 5% acetonitrile 3 min, to 50% in 2 min, to 85% in 15 min, held 3 min, 100 µL/min
- assay.setup: column: Zorbax Extend-C18 2.1 x 50 mm; eluents: water / acetonitrile, 0.1% formic acid
measured.attribute: RP-LC retention time (s)

CCn1ccc(C(=O)N2CCCC2c2nc(-c3ccc(F)cc3F)no2)n1 (centres undefined); 827
Cc1ccc(-c2cn3ccn(-c4ccc(F)c(F)c4)c(=O)c3n2)c(C)c1; 924
CC(C)NC(=O)c1ccc(OCC2CCCN(C(=O)Cc3ccc(F)cc3)C2)cc1 (centres undefined); 979
Cc1nc(-c2csc(S(=O)(=O)N3CCCC(C(=O)Nc4cccc(Cl)c4)C3)c2)no1 (centres undefined); 1040

----------
- protocol.text: gradient 5% acetonitrile 3 min, to 50% in 2 min, to 85% in 15 min, held 3 min, 100 µL/min
- assay.setup: column: Zorbax Extend-C18 2.1 x 50 mm; eluents: water / acetonitrile, 0.1% formic acid
measured.attribute: RP-LC retention time (s)

O=C(NCc1ccccc1)c1cc(N2CCCC2)n2nccc2n1; 951
Cc1nc(-c2ccc3c(c2)CCN3C(=O)Cc2cccc(F)c2)cs1; 991
CCOC(=O)c1sc2ccccc2c1S(=O)(=O)N1CCN(c2ccccn2)CC1; 794
CCc1nc(-c2csc(S(=O)(=O)N3CCC(C(=O)NC4CCCC4)CC3)c2)no1; 880
CC1=C(c2ccc(C)c(C)c2)S(=O)(=O)N=C1N1CCC(NC(=O)C2CCC2)CC1; 853
Cc1cc(-c2nnc(C3CCC3)o2)c(C)n1CC(=O)Nc1ccc2c(c1)OCCO2; 836
CCOC(=O)C1CCCN(C(=O)CCCSc2ccc(NC(=O)C3CC3)nn2)C1 (stereo not drawn); 726
COc1ccc(CN(CCN(C)C)c2ncccn2)cc1; 707
Cc1ccccc1NC(=O)N1C[C@@H](F)C[C@H]1C(=O)N1CCc2ccccc2C1; 780
O=C(Cn1cnc2nc(N3CCCC(C(=O)NC4CC4)C3)sc2c1=O)Nc1ccccc1F (stereo not drawn); 668
CCN(CC)S(=O)(=O)c1ccc2c(c1)cc(C(=O)NCCCN1CCCCC1C)n2C (stereo not drawn); 679
CCCN1C(=O)COc2cc(-c3noc(C(=O)NCCc4ccc(S(N)(=O)=O)cc4)n3)ccc21; 771
O=C(NCC1CCOCC1)Nc1cc(F)cc(F)c1; 703
